Measured Ki on transfected human CB2 receptors (Homo sapiens, UniProt P34972) follows.
Sequence (P34972 whole entry): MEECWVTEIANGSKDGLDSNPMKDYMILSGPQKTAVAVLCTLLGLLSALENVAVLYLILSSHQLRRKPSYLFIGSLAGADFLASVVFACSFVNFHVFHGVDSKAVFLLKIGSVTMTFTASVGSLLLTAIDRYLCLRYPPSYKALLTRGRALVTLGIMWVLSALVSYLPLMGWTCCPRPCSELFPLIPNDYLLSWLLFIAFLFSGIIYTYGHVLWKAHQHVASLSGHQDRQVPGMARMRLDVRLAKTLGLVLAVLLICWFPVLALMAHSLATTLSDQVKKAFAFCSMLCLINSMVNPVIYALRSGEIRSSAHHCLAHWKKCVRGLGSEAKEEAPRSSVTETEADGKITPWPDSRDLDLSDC

O=C(C1=NN(c2ccc(Cl)cc2Cl)C(c2ccc(Cl)cc2)C1)N1CCCCC1 (centres unmarked) [Example 5] :: ~1000 nM

Briefly, Ki measured for O=C(NN1CCCCC1)C1=NN(c2ccc(Cl)cc2Cl)C(c2ccc(Cl)cc2)C1 (centres unmarked) [Example 1] : > 1000 nM
